Test system: NCI-H292
Assay: Cytotoxicity against human NCI-H292 cells after 72 hrs by SRB assay
Assay type: functional, cell-based
Conditions: NCI-H292, 72 h
Observed property: IC50

# Compound, Measured result
measured = [
    ("C#Cc1cccc(Nc2ncnc3cc(OCCOC)c(OCCOC)cc23)c1 [ERLOTINIB]", "1000 nM"),
]

====

Tested on: SW-620
Experiment: cells
Details: Homo sapiens, SW-620, 72 h
Description: Growth inhibition of human SW620 cells after 72 hrs by SRB assay
pIC50: −log10 of the molar value.

# Compound, pIC50
records = [
    ("COc1cccc2c1C(=O)c1c(O)c3c(c(O)c1C2=O)C[C@@](O)(C(=O)CO)C[C@@H]3O[C@H]1C[C@H](N)[C@H](O)[C@H](C)O1 [DOXORUBICIN]", 6.77),
]
